procedure_text: endothelial E-selectin upregulation by compounds – imaging, HUVEC, cherry-picked samples, dose response (AID 977605);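 note: signal is the share of imaged cells scored positive for E-selectin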
conditions_used: HUVEC E-selectin immunostaining, at 19.5 µM (top of the series), percent of TNF-alpha response over vehicle
parameter: activation (%)
Hi! Could you send only the number? It should be in %, unit omitted.

| compound | activation, % |
| --- | --- |
| C[C@@H]1CN([C@H](C)CO)C(=O)c2cc(NC(=O)NC3CCCCC3)ccc2O[C@H]1CN(C)S(=O)(=O)c1ccc(Cl)cc1 | 1.03 |
| Cc1c(O)nc2ccccn2c1=O | 0.171 |
| CC(C)NC(=O)Nc1cccc2c1O[C@@H](CN(C)Cc1ccc(C(F)(F)F)cc1)[C@H](C)CN([C@H](C)CO)C2=O | -0.054 |
| C[C@@H]1CN([C@H](C)CO)S(=O)(=O)c2ccc(-c3ccc(F)cc3)cc2O[C@@H]1CN(C)CC1CC1 | 0.158 |
| O=S(=O)(NCc1cccnc1)c1ccc(Cl)c2ccccc12 | 0.304 |

Query string: Supply recorded activation for CO[C@@H]1CN(C)C(=O)c2ccc(NC(=O)c3nc4ccccc4s3)cc2OC[C@@H](C)N(Cc2cncnc2)C[C@@H]1C here.
Result string: -0.082

Query string: Give the reported value of activation for this record: COc1ccc(S(=O)(=O)N(C)C[C@@H]2Oc3ccc(NC(=O)Nc4c(C)noc4C)cc3C(=O)N([C@H](C)CO)C[C@@H]2C)cc1
Result string: -0.123

Query string: Quote activation reported for Cc1cc(C)nc(NC(N)=NC(C)c2ccccc2)n1 (stereo not given) please.
Result string: -0.07

Query string: // Input: Cn1nc(C(=O)NNC(=O)c2ccccc2Br)c2ccccc2c1=O . Output its activation only.
Result string: -0.008

Query string: Recall and state the measured activation for C[C@@H]1CN([C@@H](C)CO)C(=O)c2cc(NC(=O)Cn3cnnn3)ccc2O[C@H]1CN(C)Cc1ccc(Oc2ccccc2)cc1 .
Result string: 6.68

Query string: Write down activation measured for item CC(C)C[C@@H]1COc2cc(N3CCC[C@H]3CO)ccc2S(=O)(=O)N1
Result string: -0.153

Query string: Look up and report measured activation for this entry: CC(C)CCNC(=O)c1cn(C)c2ccc(S(=O)(=O)N3CCCC3)cc2c1=O
Result string: -0.129

====

procedure_text: endothelial E-selectin upregulation by compounds – imaging, HUVEC, cherry-picked samples, dose response (AID 977605);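 note: signal is the share of imaged cells scored positive for E-selectin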
conditions_used: HUVEC E-selectin immunostaining, at 19.5 µM (top of the series), percent of TNF-alpha response over vehicle
parameter: activation (%)
Give the value in % but do not write % after it.

| compound | units | activation |
| --- | --- | --- |
| C[C@H]1CN([C@@H](C)CO)C(=O)c2cc(N(C)C)ccc2O[C@H]1CN(C)S(=O)(=O)c1cn(C)cn1 | % | 0.81 |
| CC(C)NC(=O)N(C)C[C@@H]1Oc2c(NC(=O)c3cnccn3)cccc2C(=O)N([C@@H](C)CO)C[C@@H]1C | % | -0.012 |

Query string: Please give the documented activation of COc1ccccc1N(C(=O)c1snc(C(N)=O)c1N)C(C(=O)NCc1ccccc1)c1ccc(C)o1 (stereo not drawn)
Result string: -0.235

Query string: Look up activation of CCNS(=O)(=O)c1ccc(CCC(=O)N2CCN(c3ccc(OC)cc3)CC2)cc1 and report it.
Result string: -0.027

Query string: State, in one line, measured activation of C[C@H]1CN([C@@H](C)CO)C(=O)c2cc(NC(=O)CCCCCC(=O)Nc3ccccc3N)ccc2O[C@H]1CN(C)C(=O)Nc1ccc(F)cc1
Result string: 0.137

Query string: Please supply the value of reported activation for the item C[C@H]1CN([C@@H](C)CO)C(=O)c2cc(C#Cc3cccc(F)c3)cnc2O[C@@H]1CN(C)C(=O)C1CC1
Result string: -0.134

Query string: Dear colleague, please send me the reported activation for Fc1ccc(NC(=S)N2CCN(c3cccc(C(F)(F)F)c3)CC2)cc1 when you can.
Result string: -0.235

Query string: Give the reported activation for this compound. C[C@@H]1CN([C@H](C)CO)C(=O)c2cc(NC(=O)CCC(F)(F)F)ccc2O[C@@H]1CN(C)Cc1ccc(C(F)(F)F)cc1
Result string: 0.048

====

Recorded measurements of activation, one per entry
procedure_text: endothelial E-selectin upregulation by compounds – imaging, HUVEC, cherry-picked samples, dose response (AID 977605);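 note: signal is the share of imaged cells scored positive for E-selectin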
conditions_used: HUVEC E-selectin immunostaining, at 19.5 µM (top of the series), percent of TNF-alpha response over vehicle
Please respond with the number in % and leave the unit unwritten.

Example results:
| compound | parameter | quantitative_readout |
| --- | --- | --- |
| C[C@@H]1CN([C@@H](C)CO)C(=O)Cc2cc(NS(C)(=O)=O)ccc2O[C@@H]1CN(C)S(=O)(=O)c1cn(C)cn1 | activation | -0.013 |
| C[C@H](CO)N1C[C@H](C)[C@@H](CN(C)S(=O)(=O)c2ccc(Cl)cc2)Oc2ccc(NS(=O)(=O)c3ccc(F)cc3)cc2CC1=O | activation | -0.113 |
| CCOC(=O)N1CCN=C1SCc1ccc(Cl)c(Cl)c1 | activation | 5.27 |
| C[C@H](CO)N1C[C@H](C)[C@H](CN(C)Cc2ccncc2)Oc2c(NC(=O)Nc3ccc(F)cc3)cccc2C1=O | activation | -0.19 |
| CC(C)NC(=O)N(C)C[C@@H]1Oc2ccc(NC(=O)CCN3CCOCC3)cc2C(=O)N([C@H](C)CO)C[C@H]1C | activation | -0.003 |

Query string: Give recorded activation. CCCNC(=O)N(C)C[C@H]1Oc2ncc(C3=CCCC3)cc2C(=O)N([C@H](C)CO)C[C@@H]1C
Result string: -0.163

Query string: Return the recorded activation value; entry: C[C@@H]1CN([C@H](C)CO)C(=O)c2cccc(NC(=O)CCCCCC(=O)Nc3ccccc3N)c2O[C@@H]1CN(C)S(=O)(=O)c1cn(C)cn1
Result string: -0.195

Query string: Respond only with activation recorded for CC1CCN(c2nc3c(=O)[nH]c(N)nc3n2[C@@H]2O[C@H](CO)[C@@H](O)[C@H]2O)CC1
Result string: 0.131

Query string: Kindly indicate its recorded activation. Item: COc1ccc(CNC(=O)Cn2ccc(N)nc2=O)cc1
Result string: 0.076

Query string: Consider the compound C[C@H](CO)N1C[C@H](C)[C@H](CN(C)C(=O)Nc2ccccc2)Oc2c(NS(=O)(=O)c3cccs3)cccc2C1=O and give its recorded activation.
Result string: -0.044

Query string: Supply activation value. Item: C[C@@H]1CN([C@H](C)CO)C(=O)Cc2cc(NS(C)(=O)=O)ccc2O[C@H]1CN(C)S(=O)(=O)c1cn(C)cn1
Result string: -0.104

====

procedure_text: endothelial E-selectin upregulation by compounds – imaging, HUVEC, cherry-picked samples, dose response (AID 977605);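 note: signal is the share of imaged cells scored positive for E-selectin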
conditions_used: HUVEC E-selectin immunostaining, at 19.5 µM (top of the series), percent of TNF-alpha response over vehicle
Active and inactive are the calls of the source.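 How the source made its calls: active means fitted curve reaches 40% activation below the top valid tested dose, in every test run; inconclusive means test runs disagree on the call; inactive means the rest, including effects opposite to the expected direction.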
parameter: activation

Some solved entries appear below for comparison.
| compound | activation |
| --- | --- |
| CC(C)CCNC(=O)[C@H](Cc1ccccc1)N1Cc2ccccc2C1=O | 0.131% (inactive) |
| C[C@@H]1CN([C@@H](C)CO)S(=O)(=O)c2ccc(C#Cc3ccccc3)cc2O[C@@H]1CN(C)CC1CC1 | 0.541% (inactive) |
| COCC(=O)N(C)C[C@@H]1Oc2cc(-c3ccc(F)cc3)ccc2S(=O)(=O)N([C@H](C)CO)C[C@H]1C | -0.159% (inactive) |

Lab note: next compound to report on.
Query string: Provide only the value of recorded activation for Cc1c(C(=O)N2CCN(S(=O)(=O)c3cc(F)ccc3F)CC2)oc2ccccc12
Result string: -0.021% (inactive)

====

procedure_text: endothelial E-selectin upregulation by compounds – imaging, HUVEC, cherry-picked samples, dose response (AID 977605);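 note: signal is the share of imaged cells scored positive for E-selectin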
conditions_used: HUVEC E-selectin immunostaining, at 19.5 µM (top of the series), percent of TNF-alpha response over vehicle
parameter: activation (%)
Answer with a number only, understood to be in %.

| compound | activation / % |
| --- | --- |
| C[C@H](CO)N1C[C@H](C)[C@@H](CN(C)S(C)(=O)=O)Oc2ccc(NS(=O)(=O)c3cccs3)cc2C1=O | -0.072 |
| Cc1ccc(S(=O)(=O)N2CCN(C(=O)Cc3sc(C)nc3-c3ccc(F)cc3)CC2)c(C)c1 | -0.025 |
| COc1ccc(S(=O)(=O)N(C)C[C@H]2Oc3ccc(NC(=O)Nc4c(C)noc4C)cc3C(=O)N([C@H](C)CO)C[C@H]2C)cc1 | 0.58 |
| C[C@@H]1CN([C@H](C)CO)C(=O)c2cc(NC(=O)CCN3CCOCC3)ccc2O[C@@H]1CN(C)Cc1ccc(C(F)(F)F)cc1 | -0.028 |
| C[C@@H]1CN([C@@H](C)CO)C(=O)c2cccc(NC(=O)Nc3ccc(F)cc3)c2O[C@H]1CN(C)CC1CCCCC1 | -0.153 |
| Cc1ccc(S(=O)(=O)NC(Cc2ccccc2)C(=O)O)cc1C (configuration not stated) | -0.133 |
| C[C@@H]1CN([C@@H](C)CO)C(=O)Cc2cc(NC(=O)Nc3ccc(F)cc3)ccc2O[C@@H]1CN(C)S(=O)(=O)c1cn(C)cn1 | -0.041 |
| COc1ccc(CN(C)C[C@@H]2Oc3ccc(NC(=O)Nc4ccc(F)cc4)cc3CC(=O)N([C@H](C)CO)C[C@H]2C)cc1 | 0.445 |
| CCCCC1C(=O)N(c2ccccc2)N(c2ccc(O)cc2)C1=O (configuration not stated) | -0.246 |
| C=C(C)CCC(C)N1CCC(n2nccc2NC(=O)CCOc2ccccc2)CC1 (configuration not stated) | -0.056 |

Query string: Please look at this compound and report its activation: Cc1nn(CCS(=O)(=O)c2ccc(Cl)cc2)c(C)c1Br
Result string: 0.08

Query string: Using the record for C[C@@H]1CN([C@@H](C)CO)C(=O)Cc2cc(NS(=O)(=O)c3cccs3)ccc2O[C@H]1CN(C)C(=O)Nc1ccc(F)cc1 , state its measured activation.
Result string: -0.169

Query string: State its activation for this compound: CC(C)NC(=O)Nc1ccc2c(c1)C(=O)N([C@@H](C)CO)C[C@H](C)[C@@H](CN(C)Cc1ccc(C(F)(F)F)cc1)O2
Result string: -0.03

Query string: Answer with the recorded activation of C/C(=N\NC(=O)c1cc(C(C)C)[nH]n1)c1ccco1 only.
Result string: 0.133

Query string: Please give measured activation of the following entry: CN(Cc1cccc2ncccc12)C(=O)CC1C(=O)NCCN1Cc1ccc(F)cc1 (configuration not stated)
Result string: -0.111

Query string: Supply activation value. Item: COc1ccc(NS(=O)(=O)c2ccc3c(c2)CCCN3C(C)=O)cc1
Result string: -0.06

Query string: Assign activation to the following record: C[C@H](CO)N1C[C@H](C)[C@@H](CN(C)S(=O)(=O)c2ccccc2)Oc2ccc(NC(=O)Nc3ccc(C(F)(F)F)cc3)cc2C1=O
Result string: 0.863
